- assay-protocol: Solubility of buprenorphine hydrochloride in pectin solutions (saturated solution, hplc)
- reported-conditions: 18 °C, aqueous with cosolvent or surfactant or cyclodextrin, thermodynamic from solid
value-type: solubility

Ask | Using the record for `CO[C@]12CCC3(C[C@@H]1[C@](C)(O)C(C)(C)C)[C@H]1Cc4ccc(O)c5c4[C@@]3(CCN1CC1CC1)[C@H]2O5` , report its solubility.
Reply | > 10000 µg/mL

* * *

- assay-protocol: Solubility of buprenorphine hydrochloride in pectin solutions (saturated solution, hplc)
- reported-conditions: 18 °C, pH 4.5, aqueous with cosolvent or surfactant or cyclodextrin, thermodynamic from solid
value-type: solubility

Ask | Any idea what solubility was measured for `CO[C@]12CCC3(C[C@@H]1[C@](C)(O)C(C)(C)C)[C@H]1Cc4ccc(O)c5c4[C@@]3(CCN1CC1CC1)[C@H]2O5` ?
Reply | < 10000 µg/mL

// provenance: patent US20070231269A1
